- target or system: hChoKβ FL (Homo sapiens, UniProt Q9Y259)
- Construct: hChoKβ full length (FL), corresponding to aminoacids 2-395; GST (N, cleaved yes); PreScission Protease recognition site (N); made in house; host or cells: Escherichia coli BL21pLysS (DE3)
- Sequence (Q9Y259 2-395): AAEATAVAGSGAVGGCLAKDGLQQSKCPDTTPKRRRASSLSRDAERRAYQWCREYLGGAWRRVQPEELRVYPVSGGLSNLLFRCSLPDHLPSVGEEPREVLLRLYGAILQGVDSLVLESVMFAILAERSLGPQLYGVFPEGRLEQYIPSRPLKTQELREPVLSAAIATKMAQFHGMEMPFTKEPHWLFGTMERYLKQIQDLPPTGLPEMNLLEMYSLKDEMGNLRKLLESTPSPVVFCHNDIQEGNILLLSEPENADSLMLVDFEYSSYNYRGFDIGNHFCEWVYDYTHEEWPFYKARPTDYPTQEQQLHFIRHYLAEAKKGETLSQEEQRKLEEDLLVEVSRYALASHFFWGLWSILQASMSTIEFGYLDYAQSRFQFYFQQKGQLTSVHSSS
- procedure details: Biochemical kinase inhibition assay (Kinase-Glo luminescent) on hChoKβ FL
- study conditions: recombinant hChoKβ FL 30 nM, ATP 5 μM, choline 20 μM, 60 min rt; read-out: ChoKβ IC50
recorded endpoint: IC50 (µM)
Value expressed in µM; do not type the unit.

**Query** State its IC50 for this molecule: CN1CCc2nc(NC(=O)c3n[nH]c4c3C(C)(C)Cc3cnc(N)nc3-4)sc2C1 [compound 151]
**Result** 5.34

**Query** Consider the molecule CC1(C)CCC(N2CCC(OCc3csc(NC(=O)c4n[nH]c5c4C(C)(C)Cc4cnc(N)nc4-5)n3)CC2)CC1 [compound 221] and give its recorded IC50.
**Result** 0.782

**Query** Give IC50 for the following molecule: CC1(C)Cc2cnc(N)nc2-c2[nH]nc(C(=O)Nc3ccc(C(=O)N4CCC(N)CC4)cc3)c21 [compound 49]
**Result** 0.765

**Query** Specify measured IC50 for CC1(C)Cc2cnc(N)nc2-c2[nH]nc(C(=O)Nc3ncc(Cl)s3)c21 [compound 66] .
**Result** 5.81

**Query** Consider the molecule Cc1nc(NC(=O)c2n[nH]c3c2C(C)(C)Cc2cnc(N)nc2-3)sc1C(=O)N1CCC(N2CCCCC2)CC1 [compound 78] and give its recorded IC50.
**Result** 2.59

**Query** Read off the recorded IC50 for CC1(C)Cc2cnc(N)nc2-c2[nH]nc(C(=O)Nc3nc(CC(=O)N4CCC(N5CCC(F)(F)CC5)CC4)cs3)c21 [compound 229]
**Result** 0.84

**Query** State its IC50: CN1CCC(NC(=O)c2ccc(NC(=O)c3nn(CCCO)c4c3C(C)(C)Cc3cnc(N)nc3-4)cc2)CC1 [compound 9]
**Result** 5.39

**Query** Tell us which IC50 value is on record for CC(C)(C)NC(=O)NC1CCN(C(=O)Cc2csc(NC(=O)c3n[nH]c4c3C(C)(C)Cc3cnc(N)nc3-4)n2)CC1 [compound 71]
**Result** 1.95

**Query** Specify IC50 for COc1ccc(NC(=O)c2n[nH]c3c2C(C)(C)Cc2cnc(N)nc2-3)cc1 [compound 2] and stop.
**Result** 0.974
